test system: PANC-02-03 (Pancreatic Carcinoma); experiment: combination Emax (second highest fraction inhibited in the dose matrix, 72 h); higher = more inhibition; extreme values may be limits of the assay
Here the recorded combination Emax is given for each entry.
# answer = number (no unit)

Worked set:
Prompt: What value of combination Emax has been recorded for this entry: COc1nnc2ccc(N3CCC(c4ccc(OCCN5CCN(C)C(=O)[C@H]5C)cc4)CC3)nn12 [AZD5153] + CC1(C)CCC(CN2CCN(c3ccc(C(=O)NS(=O)(=O)c4ccc(NCC5CCOCC5)c([N+](=O)[O-])c4)c(Oc4cnc5[nH]ccc5c4)c3)CC2)=C(c2ccc(Cl)cc2)C1 [Venetoclax] (first compound max 1 µM, 7x7, partner max 1 µM)
Response: 0.582

Prompt: Which value of combination Emax has been reported for C[C@@H](Oc1cc(-c2cnn(C3CCNCC3)c2)cnc1N)c1c(Cl)ccc(F)c1Cl [Crizotinib] + Cn1cnc2c(F)c(Nc3ccc(Br)cc3Cl)c(C(=O)NOCCO)cc21 [Selumetinib] (first compound max 10 µM, 7x7, partner max 10 µM) in the records?
Response: 0.713

Next item in the queue.
Prompt: Recorded combination Emax of CC1(C)CCC(CN2CCN(c3ccc(C(=O)NS(=O)(=O)c4ccc(NCC5CCOCC5)c([N+](=O)[O-])c4)c(Oc4cnc5[nH]ccc5c4)c3)CC2)=C(c2ccc(Cl)cc2)C1 [Venetoclax] + C[C@@H]1COCCN1C2=NC(=NC(=C2)C3(CC3)[S@](=N)(=O)C)C4=C5C=CNC5=NC=C4 [AZD6738] (first compound max 1 µM, 7x7, partner max 10 µM) , please.
Response: 0.508
